assay: Selectivity index, ratio of CC50 for human HeLa cells to EC50 for Ebolavirus H. sapiens-wt/1995/Kikwit-9510621 infected in human HeLa cells; assay type: toxicity, cell-based; conditions: read-out: Ratio CC50/EC50

molecule | selectivity ratio
NCCCCNc1ccnc2c1ccc1c2ccc2c(NCCCCN)ccnc21 | > 1
Cl.Cl.Cl.Cl.c1cc(NCCN2CCOCC2)c2ccc3c(ccc4c(NCCN5CCOCC5)ccnc43)c2n1 | > 28.5
OC(CNc1ccnc2c1ccc1c2ccc2c(NCCN3CCOCC3)ccnc21)CN1CCOCC1 (configuration not stated) | > 16.7
NCCCNc1ccnc2c1ccc1c2ccc2c(NCCCN)ccnc21 | > 1
CN(C)CCOCCNc1ccnc2c1ccc1c2ccc2c(NCCOCCN(C)C)ccnc21 | 2
Cl.Cl.Cl.Cl.c1cc(NCCCCN2CCOCC2)c2ccc3c(ccc4c(NCCN5CCOCC5)ccnc43)c2n1 | 30
CCN(CC)CCNc1ccnc2c(NCCN(CC)CC)ccnc12 | > 1.8
CCN(CC)CCCC(C)Nc1ccnc2c(NC(C)CCCN(CC)CC)ccnc12 (configuration not stated) | > 13
CCN(CC)CCCNc1ccnc2c(NCCCN(CC)CC)ccnc12 | > 2
Clc1ccc2c(NCCCCNc3ccnc4cccnc34)ccnc2c1 | > 8.7
c1cc(NCCCCN2CCOCC2)c2nccc(NCCCCN3CCOCC3)c2n1 | > 11.2
CCN(CC)CCCNc1ccnc2c1ccc1c2ccc2c(NCCN3CCOCC3)ccnc21 | > 12.6

====

experiment: Selectivity index, ratio of toxic concentration for hepatotoxicity in transgenic l-fabp:EGFP zebrafish embryo to EC50 for Ebolavirus H. sapiens-wt/1995/Kikwit-9510621; format: toxicity; conditions: read-out: Selectivity Index
// selectivity ratio lookup, one value per entry

smiles.structure | selectivity ratio
Cl.Cl.Cl.Cl.c1cc(NCCN2CCOCC2)c2ccc3c(ccc4c(NCCN5CCOCC5)ccnc43)c2n1 | 103
Cl.Cl.Cl.Cl.c1cc(NCCCCN2CCOCC2)c2ccc3c(ccc4c(NCCN5CCOCC5)ccnc43)c2n1 | 73

====

assay: Cytotoxicity against HFF after 2 hrs by high content imaging analysis; assay type: cell-based; settings: human, HFF cells

smiles.structure | CC50 at 2 h
Cl.Cl.Cl.Cl.c1cc(NCCCCN2CCOCC2)c2ccc3c(ccc4c(NCCN5CCOCC5)ccnc43)c2n1 | 2400 nM
Cl.Cl.Cl.Cl.c1cc(NCCN2CCOCC2)c2ccc3c(ccc4c(NCCN5CCOCC5)ccnc43)c2n1 | > 20000 nM

====

test: Cytotoxicity against human HeLa cells after 2 hrs by high content imaging analysis; assay type: cell-based
CC50 at 2 h values for the compounds below.
measurement.type: CC50 at 2 h

compound | obs.value
OC(CNc1ccnc2c1ccc1c2ccc2c(NCCN3CCOCC3)ccnc21)CN1CCOCC1 (stereo not drawn) | > 10 µM
CN(C)CCOCCNc1ccnc2c1ccc1c2ccc2c(NCCOCCN(C)C)ccnc21 | 7 µM
c1cc(NCCCCN2CCOCC2)c2nccc(NCCCCN3CCOCC3)c2n1 | > 25 µM
CCN(CC)CCCC(C)Nc1ccnc2c(NC(C)CCCN(CC)CC)ccnc12 (stereo not drawn) | > 10 µM
c1cc(NCCN2CCOCC2)c2nccc(NCCN3CCOCC3)c2n1 | > 25 µM
Cl.Cl.Cl.Cl.c1cc(NCCCCN2CCOCC2)c2ccc3c(ccc4c(NCCN5CCOCC5)ccnc43)c2n1 | 8 µM
NCCCCNc1ccnc2c1ccc1c2ccc2c(NCCCCN)ccnc21 | > 10 µM
CCN(CC)CCNc1ccnc2c(NCCN(CC)CC)ccnc12 | > 25 µM
